Molecular target: Escherichia coli UDP-2,3-diacylglucosamine hydrolase (LpxH) (Escherichia coli (strain K12))
Sequence (P43341 whole entry): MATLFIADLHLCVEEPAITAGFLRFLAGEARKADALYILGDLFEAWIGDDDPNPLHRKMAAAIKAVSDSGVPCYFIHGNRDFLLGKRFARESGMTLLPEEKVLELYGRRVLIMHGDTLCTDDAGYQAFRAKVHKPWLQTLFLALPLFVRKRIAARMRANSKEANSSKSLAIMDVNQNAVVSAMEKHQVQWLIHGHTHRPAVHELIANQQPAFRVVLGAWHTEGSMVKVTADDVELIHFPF
Assay: Enzymatic IC50 assay of Escherichia coli LpxH (UMP/CMP-Glo luminescence)
Type: biochemical
Settings: Enzymatic IC50 against Escherichia coli LpxH; read-out: IC50 (converted)
Protocol: The inhibitory potency of compounds of Escherichia coli UDP-2,3-diacylglucosamine hydrolase (LpxH) was determined in an enzymatic assay. […] The hydrolysis of UDP-DAG by LpxH yielded 2,3-diacylglucosamine 1-phosphate (lipid X) and UMP, which was converted to ATP and quantified by the luciferase reaction using the UMP/CMP-Glo™ Glycosyltransferase Assay kit from Promega. The compound's inhibitory effect of LpxH is determined by measuring the light change using a luminometer (Envision).
Measurement type: IC50 (nM)
API: value field is a number in nM; no unit string.

Task: Specify measured IC50 for `NCC[N+]1(CCNC(=O)[C@H]2CC[C@H](C(F)(F)c3cc(Cl)nc(N4CCN(S(=O)(=O)c5ccc(N6C[C@H](N)CC6=O)cc5)CC4)c3)CC2)CCCC1` .
Result: 39.9

Task: Specify measured IC50 for `NCCN1CCN(C(=O)[C@H]2CC[C@H](C(F)(F)c3cc(Cl)nc(N4CCN(S(=O)(=O)c5ccc(N6C[C@H](N)CC6=O)cc5)CC4)c3)CC2)CC1` .
Result: 4.15

Task: Specify measured IC50 for `NCCCNC(=O)[C@H]1CC[C@@H](C(F)(F)c2cc(Cl)nc(N3CCN(S(=O)(=O)c4ccc(N5C[C@H](N)CC5=O)cc4)CC3)c2)CC1` .
Result: 7.48

Task: Specify measured IC50 for `NCCCNC(=O)c1cnc(C(F)(F)c2cc(Cl)nc(N3CCN(S(=O)(=O)c4ccc(N5C[C@H](N)CC5=O)cc4)CC3)c2)cn1` .
Result: 3.01

Task: Specify measured IC50 for CNC(=O)c1ccc(C(F)(F)c2cc(Cl)nc(N3CCN(S(=O)(=O)c4ccc(N5CC(NCCCN)CC5=O)cc4)CC3)c2)cc1 (stereo not drawn) .
Result: 5.92

Task: Specify measured IC50 for `NCCOCCNC(=O)[C@H]1CC[C@H](C(F)(F)c2cc(Cl)nc(N3CCN(S(=O)(=O)c4ccc(N5C[C@H](N)CC5=O)cc4)CC3)c2)CC1` .
Result: 11.5

Task: Specify measured IC50 for NCC(O)CNC(=O)c1cnc(C(F)(F)c2cc(Cl)nc(N3CCN(S(=O)(=O)c4ccc(N5C[C@H](N)CC5=O)cc4)CC3)c2)cn1 (stereo partly drawn) .
Result: 5.88

Task: Specify measured IC50 for NCCCNC(=O)C1CC2C(C1)C2C(F)(F)c1cc(Cl)nc(N2CCN(S(=O)(=O)c3ccc(N4C[C@H](N)CC4=O)cc3)CC2)c1 (stereo partly drawn) .
Result: 9.01

Task: Specify measured IC50 for NC1CC(NC(=O)[C@H]2CC[C@H](C(F)(F)c3cc(Cl)nc(N4CCN(S(=O)(=O)c5ccc(N6C[C@H](N)CC6=O)cc5)CC4)c3)CC2)C1 (stereo partly drawn) .
Result: 7.35

Task: Specify measured IC50 for `CN(C)CCCNC(=O)c1ccc(C(F)(F)c2cc(Cl)nc(N3CCN(S(=O)(=O)c4ccc(N5C[C@H](N)CC5=O)cc4)CC3)c2)nc1` .
Result: 5.79

Task: Specify measured IC50 for `CN(C)CCCNC(=O)c1ccc(C(F)(F)c2cc(Cl)nc(N3CCN(S(=O)(=O)c4ccc(N5C[C@H](N)CC5=O)cc4)CC3)c2)cc1` .
Result: 2.9

====

Measurement type: MIC (µg/mL)
API: value field is a number in µg/mL; no unit string.

Task: Fetch value of MIC on Klebsiella pneumonia ATCC 43816 for `C[N+](C)(CCN)CCNC(=O)[C@H]1CC[C@H](C(F)(F)c2cc(Cl)nc(N3CCN(S(=O)(=O)c4ccc(N5C[C@H](N)CC5=O)cc4)CC3)c2)CC1` .
Result: 2.4

Task: Fetch value of MIC on Klebsiella pneumonia ATCC 43816 for `N[C@@H]1CC(=O)N(c2ccc(S(=O)(=O)N3CCN(c4cc(C(F)(F)[C@H]5CC[C@H](C(=O)NCC6CNC6)CC5)cc(Cl)n4)CC3)cc2)C1` .
Result: 1.8

Task: Fetch value of MIC on Klebsiella pneumonia ATCC 43816 for `CN(CCN)C(=O)[C@H]1CC[C@H](C(F)(F)c2cc(Cl)nc(N3CCN(S(=O)(=O)c4ccc(N5C[C@H](N)CC5=O)cc4)CC3)c2)CC1` .
Result: 1.7

Task: Fetch value of MIC on Klebsiella pneumonia ATCC 43816 for NCCCNC(=O)C1C[C@@H]2CC[C@H]1CC2C(F)(F)c1cc(Cl)nc(N2CCN(S(=O)(=O)c3ccc(N4C[C@H](N)CC4=O)cc3)CC2)c1 (some centres unmarked) .
Result: 0.54

Task: Fetch value of MIC on Klebsiella pneumonia ATCC 43816 for CC(CN)NC(=O)[C@H]1CC[C@H](C(F)(F)c2cc(Cl)nc(N3CCN(S(=O)(=O)c4ccc(N5C[C@H](N)CC5=O)cc4)CC3)c2)CC1 (some centres unmarked) .
Result: 0.52

====

Measurement type: MIC
# output: numeric value plus its unit

Task: Fetch value of MIC on Klebsiella pneumonia ATCC 43816 for `CN(C)CCCNC(=O)c1cnc(C(F)(F)c2cc(Cl)nc(N3CCN(S(=O)(=O)c4ccc(N5C[C@H](N)CC5=O)cc4)CC3)c2)cn1` .
Result: 2.9 µg/mL

Task: Fetch value of MIC on Klebsiella pneumonia ATCC 43816 for NCC(O)CNC(=O)c1ccc(C(F)(F)c2cc(Cl)nc(N3CCN(S(=O)(=O)c4ccc(N5C[C@H](N)CC5=O)cc4)CC3)c2)cc1 (stereo partly drawn) .
Result: 0.35 µg/mL

Task: Fetch value of MIC on Klebsiella pneumonia ATCC 43816 for `C[N+](C)(C)CCCNC(=O)c1ccc(C(F)(F)c2cc(Cl)nc(N3CCN(S(=O)(=O)c4ccc(N5C[C@H](N)CC5=O)cc4)CC3)c2)cc1` .
Result: 1.5 µg/mL

Task: Fetch value of MIC on Klebsiella pneumonia ATCC 43816 for NCCCNC(=O)c1ccc(C(F)(F)c2cc(Cl)nc(N3CCN(S(=O)(=O)c4ccc(N5CC(N)CC5=O)cc4)CC3)c2)cc1 (stereo not drawn) .
Result: 0.35 µg/mL

Task: Fetch value of MIC on Klebsiella pneumonia ATCC 43816 for `NCC(=O)NCCNC(=O)[C@H]1CC[C@H](C(F)(F)c2cc(Cl)nc(N3CCN(S(=O)(=O)c4ccc(N5C[C@H](N)CC5=O)cc4)CC3)c2)CC1` .
Result: 1.2 µg/mL

Task: Fetch value of MIC on Klebsiella pneumonia ATCC 43816 for `NCC1(NC(=O)[C@H]2CC[C@H](C(F)(F)c3cc(Cl)nc(N4CCN(S(=O)(=O)c5ccc(N6C[C@H](N)CC6=O)cc5)CC4)c3)CC2)CC1` .
Result: 0.57 µg/mL

====

test system: Klebsiella pneumonia ATCC 43816
Lab note: cut-off is 0.6 µg/mL. Strictly less in MIC is class 1. Exactly 0.6 µg/mL or more is class 0.

Task: Does this compound meet the criterion MIC < 0.6 µg/mL? N[C@@H]1CC(=O)N(c2ccc(S(=O)(=O)N3CCN(c4cc(C(F)(F)[C@H]5CC[C@H](C(=O)NCCN6CCCC6)CC5)cc(Cl)n4)CC3)cc2)C1 [Example 009]
Result: class 0

Task: Does this compound meet the criterion MIC < 0.6 µg/mL? NCCCNC(=O)[C@H]1CC[C@H](C(F)(F)c2cc(Cl)nc(N3CCN(S(=O)(=O)c4ccc(N5C[C@H](N)CC5=O)cc4)CC3)c2)CC1 [Example 056]
Result: class 0

Task: Does this compound meet the criterion MIC < 0.6 µg/mL? CN(C)CCCNC(=O)c1ccc(C(F)(F)c2cc(Cl)nc(N3CCN(S(=O)(=O)c4ccc(N5C[C@H](N)CC5=O)cc4)CC3)c2)cc1 [Example 020]
Result: class 0

Task: Does this compound meet the criterion MIC < 0.6 µg/mL? NC1CC(NC(=O)[C@H]2CC[C@H](C(F)(F)c3cc(Cl)nc(N4CCN(S(=O)(=O)c5ccc(N6C[C@H](N)CC6=O)cc5)CC4)c3)CC2)C1 (stereo partly drawn) [Example 007]
Result: class 1

Task: Does this compound meet the criterion MIC < 0.6 µg/mL? NCC1CN(C(=O)[C@H]2CC[C@H](C(F)(F)c3cc(Cl)nc(N4CCN(S(=O)(=O)c5ccc(N6C[C@H](N)CC6=O)cc5)CC4)c3)CC2)C1 [Example 057]
Result: class 0

Task: Does this compound meet the criterion MIC < 0.6 µg/mL? NC(CO)CNC(=O)[C@H]1CC[C@H](C(F)(F)c2cc(Cl)nc(N3CCN(S(=O)(=O)c4ccc(N5C[C@H](N)CC5=O)cc4)CC3)c2)CC1 (stereo partly drawn) [Example 052]
Result: class 1
